tested on: LLC-PK1 cells (lacking P-gp); assay: Transport of digoxin and ginsenosides across LLC-PK1 cell monolayers; type: in vitro ADME; settings: 10 µM verapamil
attribute-measured: Effect of verapamil on transport (efflux ratio)

{"compound": "CC(C)=CCC[C@](C)(O[C@@H]1O[C@H](CO)[C@@H](O)[C@H](O)[C@H]1O)[C@H]1CC[C@]2(C)[C@@H]1[C@H](O)C[C@@H]1[C@@]3(C)CC[C@H](O)C(C)(C)[C@@H]3[C@@H](O)C[C@]12C [F1, ginsenoside F1]", "assay-result": "No transport difference"}
{"compound": "CC(C)=CCC[C@](C)(O[C@@H]1O[C@H](CO)[C@@H](O)[C@H](O)[C@H]1O)[C@H]1CC[C@]2(C)[C@@H]1[C@H](O)C[C@@H]1[C@@]3(C)CC[C@H](O[C@@H]4O[C@H](CO)[C@@H](O)[C@H](O)[C@H]4O[C@@H]4O[C@H](CO)[C@@H](O)[C@H](O)[C@H]4O)C(C)(C)[C@@H]3CC[C@]12C [Rd, ginsenoside Rd]", "assay-result": "No transport difference"}
{"compound": "CC(C)=CCC[C@](C)(O[C@@H]1O[C@H](CO)[C@@H](O)[C@H](O)[C@H]1O)[C@H]1CC[C@]2(C)[C@@H]1[C@H](O)C[C@@H]1[C@@]3(C)CC[C@H](O)C(C)(C)[C@@H]3[C@@H](O[C@@H]3O[C@H](CO)[C@@H](O)[C@H](O)[C@H]3O[C@@H]3O[C@@H](C)[C@H](O)[C@@H](O)[C@H]3O)C[C@]12C [Re, ginsenoside Re]", "assay-result": "No transport difference"}
